The origin of these recorded values is patent US12162866B1.

assayDetails: dynamic solubility in simulated gastrointestinal fluid
Type: physicochemical
testSettings: fassif, thermodynamic from solid; simulated pre-meal intestinal fluid, 37° C., 4 h
readoutLabel: solubility at 4 h
I'd appreciate it if you wrote the number followed by its unit.

[ask] Give solubility at 4 h for the following compound: Cc1cnc(Nc2cnn(C3CC(C)(C)OC(C)(C)C3)c2)nc1-c1ccc(C(=O)NCC#N)cc1 [crystal form I]
[reply] 0.111 mg/mL

====

studyTarget: JAK2 (Homo sapiens, UniProt O60674)
Sequence (O60674 whole entry): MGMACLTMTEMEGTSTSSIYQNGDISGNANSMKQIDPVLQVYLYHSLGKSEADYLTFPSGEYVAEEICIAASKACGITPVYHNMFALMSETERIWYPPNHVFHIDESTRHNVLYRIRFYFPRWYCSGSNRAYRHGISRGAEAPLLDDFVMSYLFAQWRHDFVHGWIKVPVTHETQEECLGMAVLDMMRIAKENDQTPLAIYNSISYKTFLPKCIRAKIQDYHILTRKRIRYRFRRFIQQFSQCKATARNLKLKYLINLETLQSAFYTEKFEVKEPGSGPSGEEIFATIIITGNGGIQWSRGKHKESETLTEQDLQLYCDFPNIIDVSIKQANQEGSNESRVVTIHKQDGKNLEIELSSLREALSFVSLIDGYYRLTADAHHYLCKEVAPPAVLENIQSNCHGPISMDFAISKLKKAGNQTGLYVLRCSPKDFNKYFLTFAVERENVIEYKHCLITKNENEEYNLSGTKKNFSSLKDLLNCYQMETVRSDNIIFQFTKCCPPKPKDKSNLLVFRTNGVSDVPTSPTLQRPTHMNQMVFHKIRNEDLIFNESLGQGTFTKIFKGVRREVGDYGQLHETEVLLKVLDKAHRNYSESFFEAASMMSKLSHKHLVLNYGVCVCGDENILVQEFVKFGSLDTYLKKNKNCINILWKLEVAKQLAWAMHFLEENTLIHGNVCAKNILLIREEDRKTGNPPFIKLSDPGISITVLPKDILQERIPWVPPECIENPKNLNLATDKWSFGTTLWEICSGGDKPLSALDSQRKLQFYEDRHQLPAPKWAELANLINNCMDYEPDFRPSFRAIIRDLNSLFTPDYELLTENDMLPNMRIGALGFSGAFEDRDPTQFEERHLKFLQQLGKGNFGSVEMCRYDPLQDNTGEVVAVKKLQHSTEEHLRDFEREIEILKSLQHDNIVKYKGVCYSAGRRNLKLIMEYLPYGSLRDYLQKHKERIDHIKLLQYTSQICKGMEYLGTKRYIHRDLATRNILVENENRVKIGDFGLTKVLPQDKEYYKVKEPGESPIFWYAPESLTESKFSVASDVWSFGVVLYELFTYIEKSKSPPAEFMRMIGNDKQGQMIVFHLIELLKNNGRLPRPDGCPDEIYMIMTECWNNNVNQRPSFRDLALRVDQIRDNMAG
pIC50: −log10 of the molar value.
readoutLabel: pIC50

[ask] Give pIC50 for the following compound: Cc1cnc(Nc2cnn(C3CC(C)(C)OC(C)(C)C3)c2)nc1-c1ccc(C(=O)NCC#N)cc1 [crystal form I]
[reply] > 9.29
